The origin of these recorded values is ChEMBL document CHEMBL3227980.

Experiment: Toxicity in iv dosed ICR mouse assessed as lethality
Conditions: in vivo
Examples of compounds with documented LD50 follow.
Readout type: LD50 (mg/kg)

INSERT INTO assay_data (substance_smiles, quantity_unit, observed) VALUES
  ('CN1CCC[C@H]1c1cccnc1.O=C(O)C(O)C(O)C(=O)O.O=C(O)C(O)C(O)C(=O)O', 'mg/kg', 0.38),
  ('CN1CCC[C@@H]1c1cccnc1.O=C(O)C(O)C(O)C(=O)O.O=C(O)C(O)C(O)C(=O)O', 'mg/kg', 2.75);
